Data origin: PubChem BioAssay

Each entry below carries its recorded fold change.
MEASUREMENT NOTES: viability loss with induced miR-34 in A549 – imaging, A549 dox-inducible miR-34, nuclei and caspase counts, primary screen (AID 1347080); further: test concentration not given here
RECORDED CONDITIONS: A549 miR-34 inducible, Hoechst nuclei count, 48 h; measured here: relative caspase fold change +Dox/-Dox

CC(=O)Oc1cccc(O)c1: 5.2
CCn1cc(C(=O)O)c(=O)c2cnc(N3CCNCC3)nc21: 1.25
CC(=O)Oc1cccc2c1C(=O)c1c(OC(C)=O)cc(C(=O)O)cc1C2=O: 2.1
CCCCN(CCCC)CCC(O)c1cc2c(Cl)cc(Cl)cc2c2cc(C(F)(F)F)ccc12 (stereo not given): 0.81
OC[C@H]1O[C@@H](O[C@@H]2[C@@H](CO)O[C@](O)(CO)[C@H]2O)[C@H](O)[C@@H](O)[C@H]1O: 1.95

get_value(item= COc1cc(/C=C/C(=O)CC(=O)/C=C/c2ccc(O)c(OC)c2)ccc1O , readout=fold change) returns 1.47

get_value(item= CN1[C@@H]2CC[C@H]1CC(OC(=O)C(O)c1ccccc1)C2 (stereo not given in full) , readout=fold change) returns 1.3

get_value(item= CC1=C(C(=O)O)N2C(=O)[C@@H](NC(=O)[C@H](N)c3ccc(O)cc3)[C@H]2SC1 , readout=fold change) returns 1.87
